Biological target: Mycobacterium thermoresistible (Mtr) LpqY (Mycolicibacterium thermoresistibile, UniProt G7CES0)
Sequence (G7CES0 29-471): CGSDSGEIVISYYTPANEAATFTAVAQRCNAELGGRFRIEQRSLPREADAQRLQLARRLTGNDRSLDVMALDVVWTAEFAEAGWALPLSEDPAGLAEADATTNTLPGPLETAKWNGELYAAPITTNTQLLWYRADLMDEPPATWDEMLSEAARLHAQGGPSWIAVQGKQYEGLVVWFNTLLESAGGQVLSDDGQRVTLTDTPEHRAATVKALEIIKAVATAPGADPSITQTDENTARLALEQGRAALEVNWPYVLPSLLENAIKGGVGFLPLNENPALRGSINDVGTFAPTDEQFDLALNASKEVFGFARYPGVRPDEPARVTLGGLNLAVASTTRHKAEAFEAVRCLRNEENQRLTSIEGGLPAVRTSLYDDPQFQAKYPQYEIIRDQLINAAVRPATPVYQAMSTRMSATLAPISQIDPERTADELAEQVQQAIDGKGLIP
Type: binding
Conditions: MST re-evaluation of hits against LpqY
endpoint: Hit validation Binding score

1. COc1ccccc1C(C)NCC(=O)Nc1cc(C(F)(F)F)ccc1Cl (stereo not shown) | 1.9
2. CNC(=O)c1nn(C)c2c1C(C)(C)Cc1cnc(Nc3ccc(N4CCN(C)CC4)cc3)nc1-2 [MMV676602, Milciclib, reference compound] | 13.6
3. C[C@H]1c2cccc(O)c2C(=O)C2=C(O)[C@]3(O)C(=O)C(C(N)=O)=C(O)[C@@H](N(C)C)[C@@H]3[C@@H](O)[C@@H]21 [MMV000011, Doxycycline, reference compound] | 6.5
4. COc1ccc(OC(C)C(=O)Nc2ccc(Cl)cc2C)cc1 (stereo not shown) | 6.3
